test system: NK-92 (IL-2 2.5 ng/mL); assay: percent inhibition of viability; higher = more inhibition; settings: 72 h; 10 nM
measured property: percent inhibition of viability (%)
Response body: numeric value in %, unit text excluded.

The cases that follow already have their percent inhibition of viability on record.
FC(F)c1nc2ccccc2n1-c1nc(N2CCOCC2)nc(N2CCOCC2)n1 [ZSTK474] (max concentration tested 10000 nM) | 13.1
CS(=O)(=O)OCCCCOS(C)(=O)=O [Busulfan] (max concentration tested 100000 nM) | -12.9
COc1cc(N2CCC(N3CCN(C)CC3)CC2)ccc1Nc1ncnc(Nc2ccccc2S(=O)(=O)C(C)C)n1 [ASP3026] (max concentration tested 10000 nM) | -22.5

Ask: Consider the compound N#Cc1ccc(C(c2ccc(C#N)cc2)n2cncn2)cc1 [Letrozole] (max concentration tested 10000 nM) and give its measured percent inhibition of viability.
Result: -8

Ask: Consider the compound Oc1ncnc2[nH]ncc12 [Allopurinol] (max concentration tested 10000 nM) and give its measured percent inhibition of viability.
Result: 11.2

---

tested on: normal primary NK cells, pool 2 (3 donors) (IL-2 2.5 ng/mL); assay: percent inhibition of viability; higher = more inhibition; conditions: 72 h; 1 nM
measured property: percent inhibition of viability (%)
Response body: numeric value in %, unit text excluded.

The cases that follow already have their percent inhibition of viability on record.
CC(C)[C@H]1C(=O)N[C@@H](CCCNC(=N)N)C(=O)NCC(=O)N[C@@H](CC(=O)O)C(=O)N[C@H](Cc2ccccc2)C(=O)N1C [Cilengitide] (max concentration tested 10000 nM) | -8.85
O=C(c1ccc(OCCN2CCCCC2)cc1)c1c(-c2ccc(O)cc2)sc2cc(O)ccc12 [Raloxifene] (max concentration tested 10000 nM) | -6.02

Okay, next one:
Ask: Consider the compound Cc1cc(C)c(/C=C2\C(=O)Nc3ccccc32)[nH]1 [Semaxanib] (max concentration tested 10000 nM) and give its measured percent inhibition of viability.
Result: -8.9

---

test system: normal primary NK cells, pool 1 (3 donors), resting (IL-2 0 ng/mL); assay: percent inhibition of viability; higher = more inhibition; details: 72 h; 1000 nM
# percent inhibition of viability per entry
Response body: numeric value in %, unit text excluded.

NC(=O)N1CCC(CC(=O)N2CCC([C@H]3c4ncc(Br)cc4CCc4cc(Cl)cc(Br)c43)CC2)CC1 [Lonafarnib] (max concentration tested 10000 nM) | 35.8
C[C@]1(c2nc3c(C(N)=O)cccc3[nH]2)CCCN1 [Veliparib] (max concentration tested 10000 nM) | -4.91
CS(=O)(=O)OCCCCOS(C)(=O)=O [Busulfan] (max concentration tested 100000 nM) | 4.09
C#Cc1cccc(Nc2ncnc3cc(OC)c(OCCCCCCC(=O)NO)cc23)c1 [CUDC-101] (max concentration tested 10000 nM) | 78.6
Cn1cnc2c(F)c(Nc3ccc(Br)cc3F)c(C(=O)NOCCO)cc21 [Binimetinib] (max concentration tested 1000 nM) | 17.1
Cn1cc(-c2ccc3nnc(C(F)(F)c4ccc5ncccc5c4)n3n2)cn1 (max concentration tested 10000 nM) | -28.2

Okay, next one:
Ask: Consider the compound Nc1nc(N)c2nc(-c3cccc(O)c3)c(-c3cccc(O)c3)nc2n1 [TG100-115] (max concentration tested 10000 nM) and give its measured percent inhibition of viability.
Result: -19

---

# percent inhibition of viability per entry
tested on: normal primary NK cells, pool 1 (3 donors) (IL-2 2.5 ng/mL); assay: percent inhibition of viability; higher = more inhibition; details: 72 h; 1 nM
Response body: numeric value in %, unit text excluded.

The cases that follow already have their percent inhibition of viability on record.
Oc1ccc2c(c1)CC[C@H](c1ccccc1)[C@@H]2c1ccc(OCCN2CCCC2)cc1 [Lasofoxifene] (max concentration tested 1000 nM) | -5.39
O=C(c1ccc(OCCN2CCCCC2)cc1)c1c(-c2ccc(O)cc2)sc2cc(O)ccc12 [Raloxifene] (max concentration tested 10000 nM) | 1.01
CCn1c(=O)c(-c2cc[nH]n2)cc2c(C)nc(N)nc21 [Voxtalisib] (max concentration tested 10000 nM) | -5.05

Ask: Consider the compound C=CCNC1=C2C[C@@H](C)C[C@H](OC)[C@H](O)[C@@H](C)/C=C(\C)[C@H](OC(N)=O)[C@@H](OC)/C=C\C=C(/C)C(=O)NC(=CC1=O)C2=O [Tanespimycin] (max concentration tested 10000 nM) and give its measured percent inhibition of viability.
Result: 1.58

Ask: Consider the compound CC(C)C[C@H](NC(=O)[C@H](Cc1ccccc1)NC(=O)c1cnccn1)B(O)O [Bortezomib] (max concentration tested 1000 nM) and give its measured percent inhibition of viability.
Result: -7.66

---

# percent inhibition of viability per entry
tested on: normal primary NK cells, pool 1 (3 donors), resting (IL-2 0 ng/mL); assay: percent inhibition of viability; higher = more inhibition; details: 72 h; 1 nM
Response body: numeric value in %, unit text excluded.

CC(C)C[C@H](NC(=O)[C@H](Cc1ccccc1)NC(=O)c1cnccn1)B(O)O [Bortezomib] (max concentration tested 1000 nM) | -55
CC(C)c1cc(-c2n[nH]c(=O)n2-c2ccc3c(ccn3C)c2)c(O)cc1O [Ganetespib] (max concentration tested 1000 nM) | -0.42

Ask: Consider the compound Nc1ncn([C@@H]2O[C@H](CO)[C@@H](O)[C@H]2O)c(=O)n1 [Azacitidine] (max concentration tested 10000 nM) and give its measured percent inhibition of viability.
Result: -3.24

---

tested on: NKL (IL-2 2.5 ng/mL); assay: relative IC50 (inflection point of fitted viability curve, relative to fitted max inhibition); higher = less sensitive; conditions: 72 h
# relative IC50 per entry
Response body: numeric value in µM, unit text excluded.

The cases that follow already have their relative IC50 on record.
C=CCNC1=C2C[C@@H](C)C[C@H](OC)[C@H](O)[C@@H](C)/C=C(\C)[C@H](OC(N)=O)[C@@H](OC)/C=C\C=C(/C)C(=O)NC(=CC1=O)C2=O | 0.0591
O=C(Cc1ccc(-c2ccc(OCCN3CCOCC3)cc2)cn1)NCc1ccccc1 | 0.0278
O=C(Nc1cccnc1)N1CCC(Cc2cccc(Oc3ccc(C(F)(F)F)cn3)c2)CC1 | 1.56
COCC[n+]1c2c(n(Cc3cnccn3)c1C)C(=O)c1ccccc1C2=O | 0.00309
COc1cc(C(=O)O)ccc1NC(=O)[C@@H]1N[C@@H](CC(C)(C)C)[C@](C#N)(c2ccc(Cl)cc2F)[C@H]1c1cccc(Cl)c1F | 2.45

Ask: // fetch NKL (IL-2 2.5 ng/mL) relative IC50 for C=CCc1cccc(/C=N/NC(=O)CN2CCN(Cc3ccccc3)CC2)c1O
Result: 0.591

Ask: // fetch NKL (IL-2 2.5 ng/mL) relative IC50 for Cn1cc(-c2cnn3c(N)c(Br)c([C@@H]4CCCNC4)nc23)cn1
Result: 0.372

Ask: // fetch NKL (IL-2 2.5 ng/mL) relative IC50 for CCn1c(=O)c(-c2cc[nH]n2)cc2c(C)nc(N)nc21
Result: 0.88

Ask: // fetch NKL (IL-2 2.5 ng/mL) relative IC50 for CCCCC(=O)OCC(=O)[C@]1(O)Cc2c(O)c3c(c(O)c2[C@@H](O[C@H]2C[C@H](NC(=O)C(F)(F)F)[C@H](O)[C@H](C)O2)C1)C(=O)c1c(OC)cccc1C3=O
Result: 0.00661

---

tested on: normal primary NK cells, pool 2 (3 donors) (IL-2 2.5 ng/mL); assay: percent inhibition of viability; higher = more inhibition; details: 72 h; 1 nM
# percent inhibition of viability per entry
Response body: numeric value in %, unit text excluded.

The cases that follow already have their percent inhibition of viability on record.
COc1cc2/c(=N/c3ccc(Br)cc3F)nc[nH]c2cc1OCC1CCN(C)CC1 [Vandetanib] (max concentration tested 1000 nM) | 0.59
CC[C@H](C)C(=O)O[C@H]1C[C@H](O)C=C2C=C[C@H](C)[C@H](CC[C@@H](O)C[C@@H](O)CC(=O)O)[C@H]21 [Pravastatin] (max concentration tested 10000 nM) | -8.99
COc1cc2nccc(Oc3ccc(NC(=O)Nc4cc(C)on4)c(Cl)c3)c2cc1OC [Tivozanib] (max concentration tested 10000 nM) | 5.79
CCCS(=O)(=O)Nc1ccc(F)c(C(=O)c2c[nH]c3ncc(-c4ccc(Cl)cc4)cc23)c1F [Vemurafenib] (max concentration tested 10000 nM) | -1.54
CN1CCC(CNc2ccc3ncc(-c4cccc(OC(F)(F)F)c4)n3n2)CC1 [SGI-1776] (max concentration tested 10000 nM) | -5.28

Ask: // fetch normal primary NK cells, pool 2 (3 donors) (IL-2 2.5 ng/mL) percent inhibition of viability for O=c1[nH]cc(F)c(=O)[nH]1 [Fluorouracil] (max concentration tested 10000 nM)
Result: 1.43
